Test: in vivo;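 note: radiolabelled ligand targeting bombesin receptors, given by intravenous injection at varied injected mass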
Conditions: rat, adrenal, 0.5 ug, total radioactivity
propertyMeasured: tissue uptake at 48 h (%ID/g)
Express the result in %ID/g but write the number alone.

Query tissue uptake at 48 h for CSCC[C@H](NC(=O)[C@H](CC(C)C)NC(=O)[C@H](Cc1c[nH]cn1)NC(=O)CNC(=O)[C@@H](NC(=O)[C@H](C)NC(=O)[C@H](Cc1c[nH]c2ccccc12)NC(=O)[C@H](CCC(N)=O)NC(=O)[C@H](CC(N)=O)NC(=O)CNC(=O)[C@H](Cc1ccc(O)cc1)NC(=O)[C@H](CCCNC(=N)N)NC(=O)[C@H](CCC(N)=O)NC(=O)[C@@H]1CCCN1C(=O)CN(CCN(CCN(CC(=O)O)CC(=O)O)CC(=O)O)CC(=O)O)C(C)C)C(N)=O [[^111In-DTPA^0, Pro^1, Tyr^4] bombesin, metal not drawn]
0.014
